test system: Escherichia coli ATCC 11775; assay: Antibacterial screen at 200 μg/mL (cell density vs control); format: cell-based; settings: peptide 200 μg/mL, CAMHB, 5 × 10^5 CFU/mL, 37°C, 12 h, OD600; control (no AMP) = 1; three biological replicates
Please provide measured cell density relative to control, E. coli ATCC 11775 for the entries that follow.
Give a plain numeric answer without units written out.

Ask: Give the measured cell density relative to control, E. coli ATCC 11775 of MVKLLKKMVSLYH [Cand-122, chemically synthesized candidate AMP predicted from marine biofilm bacteria] .
Reply: 0.642

Ask: Same question for MICWCAKICCSCSAFRRWWKRNGTAC [Cand-57, chemically synthesized candidate AMP predicted from marine biofilm bacteria] please.
Reply: 0.456

Ask: Okay, and MSPRICSVISCLMKLRC [Cand-11, chemically synthesized candidate AMP predicted from marine biofilm bacteria] ?
Reply: 0.967

Ask: Then MWTIYSGIKRSLHYCRRRGYYCSRYGYYS [Cand-43, chemically synthesized candidate AMP predicted from marine biofilm bacteria] ?
Reply: 0

Ask: MCRFKCKVRTTITRPVCCWLIFM [Cand-168, chemically synthesized candidate AMP predicted from marine biofilm bacteria] ?
Reply: 0.553

Ask: Follow-up item: MFSKLVKVLLKALCHVFMKCTFW [Cand-61, chemically synthesized candidate AMP predicted from marine biofilm bacteria]
Reply: 1

Ask: What do you have for MWKLPKWRNGRRRGFKIPRW [Cand-109, chemically synthesized candidate AMP predicted from marine biofilm bacteria] ?
Reply: 0.002

Ask: Item: MRRFCCCRCSCCCWPS [Cand-25, chemically synthesized candidate AMP predicted from marine biofilm bacteria]
Reply: 0.835

Ask: Same for MWTVRPRICAARGRL [Cand-172, chemically synthesized candidate AMP predicted from marine biofilm bacteria]
Reply: 1

Ask: What about this sequence? MGAVCRMGSLPCLIPRGAIRLG [Cand-198, chemically synthesized candidate AMP predicted from marine biofilm bacteria]
Reply: 0.844

Ask: Same question, MLRRIGRMWRKLHPHGQ [Cand-10, chemically synthesized candidate AMP predicted from marine biofilm bacteria] this time
Reply: 0.001

Ask: Similarly, MCTRSCRPNLVKC [Cand-47, chemically synthesized candidate AMP predicted from marine biofilm bacteria] ?
Reply: 1

---

test system: Acinetobacter baumannii ATCC 19606; assay: Antibacterial screen at 200 μg/mL (cell density vs control); type: cell-based; details: peptide 200 μg/mL, CAMHB, 5 × 10^5 CFU/mL, 37°C, 12 h, OD600; control (no AMP) = 1; three biological replicates
I'd appreciate it if you marked entries satisfied when cell density relative to control, A. baumannii ATCC 19606 is lower than 0.02 and not satisfied when it is not.

Ask: Dear reviewer, please state whether MSPRICSVISCLMKLRC [Cand-11, chemically synthesized candidate AMP predicted from marine biofilm bacteria] has cell density relative to control, A. baumannii ATCC 19606 strictly beneath 0.02.
Reply: not satisfied

Ask: And the next one, MTWPSRSRMWRTC [Cand-129, chemically synthesized candidate AMP predicted from marine biofilm bacteria] ?
Reply: not satisfied

Ask: Entry MFSKLVKVLLKALCHVFMKCTFW [Cand-61, chemically synthesized candidate AMP predicted from marine biofilm bacteria] please
Reply: not satisfied

Ask: Please give the result for MWKLPKWRNGRRRGFKIPRW [Cand-109, chemically synthesized candidate AMP predicted from marine biofilm bacteria] too.
Reply: satisfied

Ask: // next record MWWSKSIHQASFTRYRSYCRGCCTFSIRSCRYKRRII [Cand-180, chemically synthesized candidate AMP predicted from marine biofilm bacteria]
Reply: satisfied

Ask: // next record MPKRPWRACSSIG [Cand-212, chemically synthesized candidate AMP predicted from marine biofilm bacteria]
Reply: not satisfied

---

test system: Escherichia coli ATCC 11775; assay: Antibacterial screen at 200 μg/mL (cell density vs control); format: cell-based; settings: peptide 200 μg/mL, CAMHB, 5 × 10^5 CFU/mL, 37°C, 12 h, OD600; control (no AMP) = 1; three biological replicates
Please respond with reported cell density relative to control, E. coli ATCC 11775 for every item in the list.
Answer with the value's number alone.

Ask: // fetch Escherichia coli ATCC 11775 cell density relative to control, E. coli ATCC 11775 for MGPHWRGPRWGRVGCWNL [Cand-154, chemically synthesized candidate AMP predicted from marine biofilm bacteria]
Reply: 0.622

Ask: Thanks! And MSKIKAKIGHLR [Cand-98, chemically synthesized candidate AMP predicted from marine biofilm bacteria] ?
Reply: 0.765

Ask: Quick one: MRPRLRKRLLR [Cand-187, chemically synthesized candidate AMP predicted from marine biofilm bacteria]
Reply: 0.674

Ask: Now this one: MWAVARGRR [Cand-195, chemically synthesized candidate AMP predicted from marine biofilm bacteria]
Reply: 1

Ask: Input MPASRRCRPCCRLSGC [Cand-7, chemically synthesized candidate AMP predicted from marine biofilm bacteria]
Reply: 0.989

Ask: Please answer likewise for MWWSKSIHQASFTRYRSYCRGCCTFSIRSCRYKRRII [Cand-180, chemically synthesized candidate AMP predicted from marine biofilm bacteria]
Reply: 0

---

system: sheep red blood cells; details: red cells of sheep, 1 h, 32
Where no end group is shown, it is not given here.
Param threshold (3%) applies to Hemolysis ratio (%) at 32μg/mL; output fulfilled when value >= threshold, not fulfilled when value < threshold.

Ask: Check this sequence for Hemolysis ratio (%) at 32μg/mL at or above 3%: MSRSLRNLLKYVWVKVKGE [Cand-217]
Reply: fulfilled

Ask: # iterate: MKKCRRKVLFGLWRRN [Cand-77]
Reply: fulfilled

Ask: // next record MWIRLTKRLRKSRSNR [Cand-214]
Reply: fulfilled

Ask: Also need MSPIRAWRRLRSC [Cand-144] , thanks.
Reply: not fulfilled

Ask: One more sequence: MSPCLKGVIRSAVKSLHR [Cand-53]
Reply: fulfilled

Ask: Same read-out for MRCSLKKIISTFFS [Cand-71] ?
Reply: fulfilled

Ask: Same thing, different sequence: MVAVMKKLLLKYALK [Cand-82]
Reply: fulfilled

Ask: Same read-out for MLTWLKKLQPYLISMMR [Cand-44] ?
Reply: fulfilled

Ask: Next up: MRIVMCRIGGRL [Cand-102]
Reply: fulfilled

Ask: # iterate: MWPLSKLWPSCFRKTT [Cand-5]
Reply: not fulfilled

Ask: What do we get for MRPKKWLKKPKPRPKKWPTK [Cand-210] ?
Reply: not fulfilled

---

Tested on: Acinetobacter baumannii ATCC 19606
Assay: Antibacterial screen at 200 μg/mL (cell density vs control)
Assay type: cell-based
Details: peptide 200 μg/mL, CAMHB, 5 × 10^5 CFU/mL, 37°C, 12 h, OD600; control (no AMP) = 1; three biological replicates
Method: Eight bacterial strains were utilized in the antibacterial experiment. S. aureus ATCC 12600, B. subtilis ATCC 23857, E. coli ATCC 11775, and A. baumannii ATCC 19606 were purchased from Shanghai Beinuo Biology. […] Three biological replicates were conducted for each group, and OD600 values were measured after incubation at 37°C for 12 h. […] The MIC of a peptide against a bacterium was determined as the minimum peptide concentration at which there was no visible bacterial growth.
READOUT TYPE: cell density relative to control, A. baumannii ATCC 19606

Ask: Looking for the measured cell density relative to control, A. baumannii ATCC 19606 of MICWCAKICCSCSAFRRWWKRNGTAC [Cand-57, chemically synthesized candidate AMP predicted from marine biofilm bacteria] , can you help?
Reply: 0.653

Ask: Same question for MCCVGRGVSFLRTRKCFIKS [Cand-161, chemically synthesized candidate AMP predicted from marine biofilm bacteria] please.
Reply: 0.543

Ask: Same read-out for MLRRIGRMWRKLHPHGQ [Cand-10, chemically synthesized candidate AMP predicted from marine biofilm bacteria] ?
Reply: 0.009

---

system: Bacillus subtilis ATCC 23857; assay: Antibacterial screen at 200 μg/mL (cell density vs control); format: cell-based; conditions: peptide 200 μg/mL, CAMHB, 5 × 10^5 CFU/mL, 37°C, 12 h, OD600; control (no AMP) = 1; three biological replicates
So I've got a bunch of sequences here, and I need their cell density relative to control, B. subtilis ATCC 23857 values.
I only need the number, thanks.

Ask: Entry under review: MWKLPKWRNGRRRGFKIPRW [Cand-109, chemically synthesized candidate AMP predicted from marine biofilm bacteria] . Reported cell density relative to control, B. subtilis ATCC 23857?
Reply: 0.012

Ask: Same read-out for MRPCMCRIGGGH [Cand-13, chemically synthesized candidate AMP predicted from marine biofilm bacteria] ?
Reply: 1

Ask: Can you handle MAWISTRIACCCSTRLRRRIRTCSTSFCR [Cand-218, chemically synthesized candidate AMP predicted from marine biofilm bacteria] next?
Reply: 0.004

---

test system: Acinetobacter baumannii ATCC 19606; assay: Antibacterial screen at 200 μg/mL (cell density vs control); assay type: cell-based; settings: peptide 200 μg/mL, CAMHB, 5 × 10^5 CFU/mL, 37°C, 12 h, OD600; control (no AMP) = 1; three biological replicates
READOUT TYPE: cell density relative to control, A. baumannii ATCC 19606
Answer using only a numeral; do not append any unit.

Ask: // map MRPSMCRIGGRL [Cand-38, chemically synthesized candidate AMP predicted from marine biofilm bacteria] to recorded cell density relative to control, A. baumannii ATCC 19606 (system: Acinetobacter baumannii ATCC 19606)
Reply: 0.836

Ask: Likewise for MPKVKTKVCHRR [Cand-26, chemically synthesized candidate AMP predicted from marine biofilm bacteria] ?
Reply: 0.88

Ask: Try MCTIRTCRRSRPHHCSTHC [Cand-101, chemically synthesized candidate AMP predicted from marine biofilm bacteria] next.
Reply: 0.879
